The origin of these recorded values is patent US6586633B1.

This section lists MIC readings for T. mentagrophytes IF05811.
A bare number is not enough; add the unit after it.

Use these answered entries as a reference point.
C=C(C)c1cc(C)cc(CN(C)Cc2ccc(C(C)(C)C)cc2)c1.Cl [Compound 88] :: 0.1 µg/mL
C=C(C)c1cccc(CN(C)C/C=C/C#CC(C)(C)C)c1.Cl [Compound 3] :: 0.1 µg/mL
C=C(CC)c1cccc(CN(C)Cc2ccc(C(C)(C)C)cc2)c1.Cl [Compound 95] :: 1.56 µg/mL
C=C(C)c1cccc(CN(C)Cc2ccc(C(C)(C)C)cc2)c1.Cl [Compound 77] :: 0.39 µg/mL

Request the reported MIC associated with C=C(CC)c1cccc(CN(C)C/C=C/C#CC(C)(C)C)c1.Cl [Compound 25]
0.78 µg/mL

Request the reported MIC associated with C=C(C)c1cccc(CN(CC)C/C=C/C#CC(C)(C)C)c1.Cl [Compound 45]
0.39 µg/mL

Request the reported MIC associated with C=C(C)c1cc(C)cc(CN(C)C/C=C/C#CC(C)(C)C)c1.Cl [Compound 19]
0.1 µg/mL

Request the reported MIC associated with C=Cc1cccc(CN(C)C/C=C/C#CC(C)(C)C)c1.Cl [Compound 10]
0.39 µg/mL

Request the reported MIC associated with C=C(C)c1cc(CN(C)C/C=C/C#CC(C)(C)C)ccc1C.Cl [Compound 74]
6.25 µg/mL
